assay: Toxicity liver stage against HepG2, at 10uM; format: cell-based; set-up: test concentration 10 uM, cell line HepG2-A16-CD81EGFP; settings: human, HepG2-A16-CD81EGFP cells; read-out: INHIBITION
So I've got a bunch of molecules here, and I need their cytotoxicity at 10 µM values.
Your answer should be a plain number; it is taken to be in %.

### Prompt Param item = `COC(=O)CCn1ccc(=O)c2cc(F)ccc21` ; retrieve measured cytotoxicity at 10 µM.
### Response 0.409

### Prompt # iterate: `CN(C)CC(=O)N1CCN(C(=O)c2cccc3[nH]ncc23)CC1`
### Response -11.6

### Prompt Follow-up entry: `Cc1cc(NCC(=O)NCC(F)(F)F)nc(-c2ccncc2)n1`
### Response 6.45

### Prompt Would you mind doing COCCN(Cc1ccccn1)C(=O)CC1OCCc2sccc21 (stereo not drawn) as well?
### Response -54.8

### Prompt Please do the same for CN(C)CC1CN(Cc2cc(Cl)cc3cccnc23)CCO1 (stereo not drawn) as well.
### Response 5.26

### Prompt Param item: `CCn1cc(CN2C[C@@H]3CCCN3C[C@H]2CCSC)c(C)n1`
### Response -15.3

### Prompt // same read-out, input: `O=C([C@H]1CN(Cc2ccncc2)C[C@H]2OCC[C@@H]12)N1CCCCO1`
### Response 9.01

### Prompt Entry to check: `COCCC(=O)N1CCc2cc(Cl)cc(Cl)c2C1`
### Response -13.1

### Prompt And `O=C(CCCn1ccnc1)N1CCC2(CC1)[C@H](O)C[C@@H]2OCCO` ?
### Response 3.31

### Prompt What about this molecule? `CCOCc1cccc(S(=O)(=O)Nc2ccn(CC)n2)c1`
### Response 4.84

### Prompt What would you report for `CCOCCN1CCN([C@@H]2c3ccccc3C3(CCNCC3)[C@H]2O)CC1` ?
### Response -0.777

### Prompt Try `CCc1cc(NCCNc2cccnc2)n2nccc2n1` next.
### Response -11.9

### Prompt Request: `Cc1nc2c(cc1C(=O)O)CCN(Cc1ccsc1)CC2`
### Response 9.62

### Prompt Item: O=c1n(CC2CCCO2)nc(CC2CCNCC2)n1-c1ccccc1 (stereo not drawn)
### Response -3.49

### Prompt Note, next up: `Cc1ncsc1CN1C[C@@H](OCc2ccccn2)[C@H]2OCCC[C@H]21`
### Response -141

### Prompt Also CN(Cc1nc2ccccc2s1)C1CCCN(c2cccnn2)C1 (stereo not drawn) ?
### Response 5.15

### Prompt Here is the next molecule: O=C(c1ccc2c(c1)OCCO2)N1CCCC(n2ccnc2)C1 (stereo not drawn)
### Response -16.3

### Prompt And what about the molecule `CCC(CC)NC(=O)c1nc2n(n1)-c1ccccc1S(=O)(=O)N2` ?
### Response 8.3

### Prompt Another: `CC[C@@H](CO)Nc1nccc(-c2cnc3sc(C)cn3c2=O)n1`
### Response -14

### Prompt And `CN(Cc1ccc(F)cc1)C(=O)Nc1cccnc1N1CCCC1` ?
### Response -4.26

### Prompt Follow-up entry: CCn1ncc2c1CN(C(=O)c1ccc3c(c1)OCO3)CC2COC (stereo not drawn)
### Response 8.7

### Prompt Next molecule up: `Cc1ccccc1CS(=O)(=O)CC(=O)N(C)Cc1cccc(F)c1`
### Response 4.8

### Prompt Please do the same for CC(C)(C)c1nc(CNC2CCCN(c3cccnn3)C2)no1 (stereo not drawn) as well.
### Response 4.93

### Prompt Check Cc1ccc(C)c2c(O)cc(CN3CCNC(=O)C3C)nc12 (stereo not drawn) too.
### Response -1.66

### Prompt Then this molecule: `CN(Cc1ccc2c(c1)OCCO2)c1ncc(S(N)(=O)=O)s1`
### Response 0.482

### Prompt Then `Cc1nnc(N2C[C@H](C(=O)NCc3ccco3)[C@@H]3CCO[C@@H]3C2)s1` ?
### Response 8.5

### Prompt Same again, this time with `CN(CCCNC(=O)NCc1ccncc1)CC(F)(F)F`
### Response 1.85

### Prompt Now consider `Cc1noc(CN(C)c2ccccc2)n1` .
### Response 8.82

### Prompt Item: `Cc1ccc(S(=O)(=O)NC(=O)COc2cccc(C(N)=O)c2)s1`
### Response -12.7

### Prompt Another molecule to check: O=S(=O)(NCC1(O)CCOc2ccccc21)c1ccccc1Br (stereo not drawn)
### Response 8.45

### Prompt // query: CCCc1nc(C(C)(C)NC(=O)C2CC(=O)N(CCOC)C2)no1 (stereo not drawn)
### Response -8.12

### Prompt Similarly, `CN(C)c1ccc(CNC2(c3ccc(F)cc3)CCOCC2)cc1F` ?
### Response 0.937

### Prompt # repeat for `Cc1noc(C)c1C(=O)NCc1ccc(N2CCC(C)CC2)nc1`
### Response 8.43

### Prompt Next molecule: `CCOC(=O)c1sc(NC(=O)CN2C(=O)CCC2=O)c(C#N)c1C`
### Response -6.93

### Prompt What do you get for `CCOc1ccc(CNC(=O)N(C)Cc2ncnn2C)cc1C` ?
### Response -16

### Prompt Moving on to `CC(C)c1nc(CNc2ccc(CNS(C)(=O)=O)cc2)cs1`
### Response 3.82

### Prompt Next molecule up: `Cc1ccc(NC(=O)Nc2cnc(N3CCN(C)CC3)nc2)cc1`
### Response -15.4

### Prompt Same for `COCCNC(=O)c1cc(C)nc(C2CCN(C)CC2)n1`
### Response -2.48

### Prompt Also `OC1(Cn2ccc3ncccc32)CCN(Cc2cccs2)CC1` ?
### Response -9.65

### Prompt Next up: CCn1nc(C)cc1C(=O)OCC1CC(=O)N(Cc2ccccc2)C1 (stereo not drawn)
### Response 6.68

### Prompt Then `CCOCCCNC(=O)Cc1cccs1` ?
### Response -10.2

### Prompt Try COc1ccc(CN2CCN(C(C)c3nc(C4CC4)no3)CC2)cc1 (stereo not drawn) next.
### Response 4.31

### Prompt How about this molecule: `O=C(Nc1nc2c(s1)CNCC2)C1CC1`
### Response -0.0154

### Prompt Please give the result for `CCCn1nnnc1CSCc1cn2c(C)cccc2n1` too.
### Response 8

### Prompt What about CC(C)CC(=O)N1CCCCC(NC(=O)CCc2cccnc2)C1 (stereo not drawn) ?
### Response -1.62

### Prompt Moving on to the next molecule: `CC(C)Oc1ccc(CNC(=O)CC(F)(F)F)cc1F`
### Response -1.08

### Prompt Now the molecule `CCc1cc(N[C@H]2CCC[C@H]2CO)n2nccc2n1`
### Response -10.1

### Prompt Same question for `c1ccc(COC[C@@H]2CCC[C@]23CN(Cc2nccs2)CCO3)nc1` please.
### Response -65.4
